System: HCT116 cells
ASSAY EXPLANATION: Lactate dehydrogenase (LDH) release assay
Type: cell-based
Positions of bridges follow the written chain, without caps; N, C: chain ends. Non-standard residues stand in square brackets, D forms with d. Residues, ends and D or L forms follow the SMILES beside them. Lys(N3) = [N-]=[N+]=NCCCC[C@H](N)C(=O)O; R8 = C=CCCCCCC[C@@](C)(N)C(=O)O; Cba = N[C@@H](CC1CCC1)C(=O)O; S5 = C=CCCC[C@](C)(N)C(=O)O; βAla = NCCC(=O)O
QUANTITY: LDH: Cytotoxicity assay: % Effect (%)
Answers are plain numbers, in %.

{"COMPOUND": "CC(=O)N[C@@H](CCCCN=[N+]=[N-])C(=O)NCCC(=O)N[C@@H](CC(C)C)C(=O)N[C@H](C(=O)N[C@@H](Cc1ccccc1)C(=O)N[C@]1(C)CCCCCCC=CCCC[C@@](C)(C(=O)N[C@@H](CO)C(=O)N[C@@H](C)C(=O)N[C@@H](C)C(N)=O)NC(=O)[C@H](CC2CCC2)NC(=O)[C@H](CCC(N)=O)N(C)C(=O)[C@H](C)NC(=O)[C@H](Cc2c[nH]c3ccccc23)NC(=O)[C@H](Cc2ccc(O)cc2)NC(=O)[C@H](CCC(=O)O)NC1=O)[C@@H](C)O", "QUANTITATIVE RESULT": 13.75}

Hey, can you go through the list below and give me LDH: Cytotoxicity assay: % Effect for every item?
1. CC(=O)N[C@H](C(=O)N[C@@H](CO)C(=O)NC(C)(Cc1ccccc1)C(=O)N[C@]1(C)CCCCCCC=CCCC[C@@](C)(C(N)=O)NC(=O)[C@H](CC(C)C)NC(=O)[C@H](CC(C)C)NC(=O)[C@H](C)NC(=O)[C@H](Cc2c[nH]c3ccccc23)NC(=O)[C@H](Cc2ccc(O)cc2)NC(=O)[C@H](CCC(=O)O)NC1=O)[C@@H](C)O (stereo partly drawn)
2. CC(=O)N[C@@H](CCCCN=[N+]=[N-])C(=O)NCCC(=O)N[C@@H](CO)C(=O)N[C@H](C(=O)N[C@@H](Cc1ccccc1)C(=O)N[C@]1(C)CCCCCCC=CCCC[C@@](C)(C(=O)N[C@@H](CO)C(=O)N[C@@H](C)C(=O)N[C@@H](C)C(N)=O)NC(=O)[C@H](CC2CCC2)NC(=O)[C@H](CCC(N)=O)NC(=O)[C@H](CO)NC(=O)[C@H](Cc2c[nH]c3ccccc23)NC(=O)[C@H](Cc2ccc(O)cc2)NC(=O)[C@H](CO)NC1=O)[C@@H](C)O [MP-5493] (Ac-[Lys(N3)][βAla]STF[R8]SYWSQ[Cba][S5]SAA-NH2; staple 6-13)

[47.15, 6.777]

====

ASSAY EXPLANATION: Experimental LogD (partition coefficient)
CONDITIONS: not stated, Partition Coeff LogD
Positions of bridges follow the written chain, without caps; N, C: chain ends. Non-standard residues stand in square brackets, D forms with d. Residues, ends and D or L forms follow the SMILES beside them. Lys(N3) = [N-]=[N+]=NCCCC[C@H](N)C(=O)O; R8 = C=CCCCCCC[C@@](C)(N)C(=O)O; Cba = N[C@@H](CC1CCC1)C(=O)O; S5 = C=CCCC[C@](C)(N)C(=O)O; βAla = NCCC(=O)O; Sar = CNCC(=O)O
QUANTITY: logD
Give bare numbers.

{"COMPOUND": "CC(=O)N[C@@H](CO)C(=O)NCC(=O)N[C@@H](CO)C(=O)N[C@H](C(=O)N[C@@H](CO)C(=O)N[C@@H](Cc1ccccc1)C(=O)N[C@]1(C)CCCCCCC=CCCC[C@@](C)(C(N)=O)NC(=O)[C@H](CC(C)C)NC(=O)[C@H](CC(C)C)NC(=O)[C@H](C)NC(=O)[C@H](Cc2c[nH]c3ccccc23)NC(=O)[C@H](Cc2ccc(O)cc2)NC(=O)[C@H](CCC(=O)O)NC1=O)[C@@H](C)O", "QUANTITATIVE RESULT": 2.3}

Need logD, item CC(=O)N[C@@H](CCCCN=[N+]=[N-])C(=O)NCCC(=O)N(C)CC(=O)N[C@H](C(=O)N[C@@H](Cc1ccccc1)C(=O)N[C@]1(C)CCCCCCC=CCCC[C@@](C)(C(=O)N[C@@H](CO)C(=O)N[C@@H](C)C(=O)N[C@@H](C)C(N)=O)NC(=O)[C@H](CC2CCC2)NC(=O)[C@H](CCC(N)=O)NC(=O)[C@H](C)NC(=O)[C@H](Cc2c[nH]c3ccccc23)NC(=O)[C@H](Cc2ccc(O)cc2)NC(=O)[C@H](CCC(=O)O)NC1=O)[C@@H](C)O [MP-799] (Ac-[Lys(N3)][βAla][Sar]TF[R8]EYWAQ[Cba][S5]SAA-NH2; staple 6-13)
2.6

Where do the numbers come from? From paper PMC10786919.
